Readings of Max MFI for the listed binders
Biological target: T1, human CD24 (human, UniProt P25063 27-59, heavily glycosylated, GPI-anchored (as described in the background))
T1 construct: whole, on cells; Target of all cell-based FACS assays; also called hCD24; Cluster of differentiation 24
T1 chain (looked up): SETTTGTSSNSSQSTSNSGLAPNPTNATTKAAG
Assay: FACS, 293F-hCD24 cells

Worked cases, Max MFI given:
INSERT INTO assay_data (binder, measured_value) VALUES
  ('ch100F2E3-hIgG4 (antibody, V domains shown, chimeric) VH: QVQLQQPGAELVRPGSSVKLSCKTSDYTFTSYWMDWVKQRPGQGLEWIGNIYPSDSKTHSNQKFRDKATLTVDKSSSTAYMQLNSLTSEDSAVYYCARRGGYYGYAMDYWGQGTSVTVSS VL: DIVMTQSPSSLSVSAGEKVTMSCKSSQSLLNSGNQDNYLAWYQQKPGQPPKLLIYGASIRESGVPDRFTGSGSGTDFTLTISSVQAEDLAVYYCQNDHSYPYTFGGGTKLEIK', 60400),
  ('110D4G4 (antibody, V domains shown, mouse monoclonal antibody; also called mAb-110D4G4) VH: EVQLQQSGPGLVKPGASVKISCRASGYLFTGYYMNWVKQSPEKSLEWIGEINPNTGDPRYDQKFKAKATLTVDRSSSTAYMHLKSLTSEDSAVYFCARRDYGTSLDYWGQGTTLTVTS VL: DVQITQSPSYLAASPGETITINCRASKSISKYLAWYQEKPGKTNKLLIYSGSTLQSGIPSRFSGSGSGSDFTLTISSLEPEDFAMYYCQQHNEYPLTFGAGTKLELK', 56500),
  ('71A4F12 (antibody, V domains shown, mouse monoclonal antibody) VH: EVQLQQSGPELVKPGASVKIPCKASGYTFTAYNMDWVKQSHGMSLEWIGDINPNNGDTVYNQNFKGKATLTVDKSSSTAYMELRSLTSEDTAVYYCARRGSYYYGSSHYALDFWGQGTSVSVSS VL: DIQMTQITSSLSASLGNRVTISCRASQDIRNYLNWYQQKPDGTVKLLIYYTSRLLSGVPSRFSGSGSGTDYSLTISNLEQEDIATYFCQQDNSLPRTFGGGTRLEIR', 39400),
  ('ch81A1F8-hIgG4 (antibody, V domains shown, chimeric; also called chAb81A1F8; ch81A1F8-IgG4) VH: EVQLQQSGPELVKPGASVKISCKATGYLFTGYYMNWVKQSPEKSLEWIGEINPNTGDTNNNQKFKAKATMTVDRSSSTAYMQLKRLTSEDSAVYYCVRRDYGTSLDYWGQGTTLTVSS VL: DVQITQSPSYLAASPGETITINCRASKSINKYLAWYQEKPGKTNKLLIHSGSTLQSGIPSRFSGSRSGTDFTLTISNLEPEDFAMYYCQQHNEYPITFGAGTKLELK', 117000);

Next:
Endpoint output: Max MFI of ch110D4G4-hIgG4 (antibody, V domains shown, chimeric; also called chAb110D4G4) VH: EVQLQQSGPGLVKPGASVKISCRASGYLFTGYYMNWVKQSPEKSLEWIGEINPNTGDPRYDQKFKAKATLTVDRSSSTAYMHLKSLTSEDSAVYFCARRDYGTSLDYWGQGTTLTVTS VL: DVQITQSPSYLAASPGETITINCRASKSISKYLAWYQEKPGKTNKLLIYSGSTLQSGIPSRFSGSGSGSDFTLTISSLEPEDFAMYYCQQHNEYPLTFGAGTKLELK . Value?
112000
